test system: ATP; experiment: switch fluorescence ratio, 500 uM ATP over buffer (Cy3 cluster intensity, sum of 5 cycles each) (fold (ratio)); higher = stronger signal-on switching upon ATP binding; sequences stand for … in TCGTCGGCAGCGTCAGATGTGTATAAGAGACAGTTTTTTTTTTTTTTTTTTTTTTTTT…TC; conditions: aptamer strand: ATP DNA aptamer (quencher-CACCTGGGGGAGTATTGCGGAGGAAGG + anchor), 100 nM annealed; ATP concentration: 500 uM;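 note: ATP exposure 15 min at 22 °C before imaging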
measurement type: switch fluorescence ratio

[[record]]
sequence_entry = "GCCAGGCATT"
endpoint_value = 0.989

[[record]]
sequence_entry = "AGGGTTTTAG"
endpoint_value = 0.994

[[record]]
sequence_entry = "ATTTTGATAC"
endpoint_value = 1.01

[[record]]
sequence_entry = "AAATTGAACT"
endpoint_value = 1.03

[[record]]
sequence_entry = "CCTACAGTGA"
endpoint_value = 1.75

[[record]]
sequence_entry = "TCGATAATTT"
endpoint_value = 0.986

[[record]]
sequence_entry = "GGATGAAAG"
endpoint_value = 0.99

[[record]]
sequence_entry = "GGGGTTGAGT"
endpoint_value = 1

[[record]]
sequence_entry = "GGACTGGGCT"
endpoint_value = 0.981

[[record]]
sequence_entry = "CGGCAAATAG"
endpoint_value = 2.52

[[record]]
sequence_entry = "GATCTTATTC"
endpoint_value = 0.985

[[record]]
sequence_entry = "GCGTTTAAGT"
endpoint_value = 1.02

[[record]]
sequence_entry = "ACGTAGGGTT"
endpoint_value = 1.08

[[record]]
sequence_entry = "TTGGATGAAG"
endpoint_value = 0.982

[[record]]
sequence_entry = "GGGGGGCTGG"
endpoint_value = 0.979

[[record]]
sequence_entry = "CAGGTGGGTC"
endpoint_value = 1.02

[[record]]
sequence_entry = "TGTTTTGGCG"
endpoint_value = 0.959

[[record]]
sequence_entry = "GTGGATTGGT"
endpoint_value = 0.974

[[record]]
sequence_entry = "CATCTGGCTT"
endpoint_value = 1.05

[[record]]
sequence_entry = "ACTTAGTTTT"
endpoint_value = 1.04

[[record]]
sequence_entry = "CTGGCTTTGG"
endpoint_value = 1.05


###

Each record here notes measured switch fluorescence ratio.
tested on: ATP; test: switch fluorescence ratio, 500 uM ATP over buffer (Cy3 cluster intensity, sum of 5 cycles each) (fold (ratio)); higher = stronger signal-on switching upon ATP binding; sequences stand for … in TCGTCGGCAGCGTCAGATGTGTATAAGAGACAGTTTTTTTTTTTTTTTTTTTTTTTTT…TC; conditions: aptamer strand: ATP DNA aptamer (quencher-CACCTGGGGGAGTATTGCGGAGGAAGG + anchor), 100 nM annealed; ATP concentration: 500 uM;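 note: ATP exposure 15 min at 22 °C before imaging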
measurement type: switch fluorescence ratio

[[record]]
sequence_entry = "ATGATTACGT"
measurement_type = "switch fluorescence ratio"
endpoint_value = 1.01

[[record]]
sequence_entry = "AGGGAGCTGG"
measurement_type = "switch fluorescence ratio"
endpoint_value = 0.998

[[record]]
sequence_entry = "AACGCGGTAT"
measurement_type = "switch fluorescence ratio"
endpoint_value = 1.03

[[record]]
sequence_entry = "TTAGCATTTA"
measurement_type = "switch fluorescence ratio"
endpoint_value = 1.03

[[record]]
sequence_entry = "GGGTTATGCG"
measurement_type = "switch fluorescence ratio"
endpoint_value = 1.04

[[record]]
sequence_entry = "TTTATGGGGA"
measurement_type = "switch fluorescence ratio"
endpoint_value = 1

[[record]]
sequence_entry = "GGTTTGCAGT"
measurement_type = "switch fluorescence ratio"
endpoint_value = 1

[[record]]
sequence_entry = "ATCGTTTGTT"
measurement_type = "switch fluorescence ratio"
endpoint_value = 1.04

[[record]]
sequence_entry = "ATATTATGGG"
measurement_type = "switch fluorescence ratio"
endpoint_value = 0.998

[[record]]
sequence_entry = "CATTGGTAGT"
measurement_type = "switch fluorescence ratio"
endpoint_value = 0.977

[[record]]
sequence_entry = "CGGGGTTGGC"
measurement_type = "switch fluorescence ratio"
endpoint_value = 1.02

[[record]]
sequence_entry = "TATGAAAGGC"
measurement_type = "switch fluorescence ratio"
endpoint_value = 0.991

[[record]]
sequence_entry = "TCATAGCGGT"
measurement_type = "switch fluorescence ratio"
endpoint_value = 1.09

[[record]]
sequence_entry = "GTCTAGGGGG"
measurement_type = "switch fluorescence ratio"
endpoint_value = 1.05

[[record]]
sequence_entry = "CGGTTGTAAT"
measurement_type = "switch fluorescence ratio"
endpoint_value = 1.03

[[record]]
sequence_entry = "TGCATTTTTT"
measurement_type = "switch fluorescence ratio"
endpoint_value = 0.981

[[record]]
sequence_entry = "GCAACCGGTC"
measurement_type = "switch fluorescence ratio"
endpoint_value = 1.05

[[record]]
sequence_entry = "AATTATACCC"
measurement_type = "switch fluorescence ratio"
endpoint_value = 1.03

[[record]]
sequence_entry = "CGTTTTTTTA"
measurement_type = "switch fluorescence ratio"
endpoint_value = 0.992

[[record]]
sequence_entry = "ATCGGGTGTG"
measurement_type = "switch fluorescence ratio"
endpoint_value = 0.987


###

system: ATP; experiment: switch fluorescence ratio, 500 uM ATP over buffer (Cy3 cluster intensity, sum of 5 cycles each) (fold (ratio)); higher = stronger signal-on switching upon ATP binding; sequences stand for … in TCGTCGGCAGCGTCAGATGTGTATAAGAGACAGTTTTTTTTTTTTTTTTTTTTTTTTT…TC; details: aptamer strand: ATP DNA aptamer (quencher-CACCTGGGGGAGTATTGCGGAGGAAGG + anchor), 100 nM annealed; ATP concentration: 500 uM;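 note: ATP exposure 15 min at 22 °C before imaging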
Please enter criterion met where switch fluorescence ratio is greater than or equal to 1, and criterion not met where it is lower.

[[record]]
sequence_entry = "CCTCTAAGTT"
label = "criterion met"

[[record]]
sequence_entry = "AATGGCATTC"
label = "criterion met"

[[record]]
sequence_entry = "AGTGACCCCT"
label = "criterion met"

[[record]]
sequence_entry = "GCATCACGTA"
label = "criterion met"

[[record]]
sequence_entry = "TTTTGTGCTT"
label = "criterion met"

[[record]]
sequence_entry = "GATATAAGCT"
label = "criterion met"

[[record]]
sequence_entry = "AGAGTCAAGT"
label = "criterion not met"

[[record]]
sequence_entry = "GTTAACTAAT"
label = "criterion met"

[[record]]
sequence_entry = "TGGAAGGGTG"
label = "criterion met"

[[record]]
sequence_entry = "TGAGACTTAC"
label = "criterion met"

[[record]]
sequence_entry = "GGGGGGCGAT"
label = "criterion met"

[[record]]
sequence_entry = "CGTTTGACCT"
label = "criterion met"

[[record]]
sequence_entry = "GCGGGACGTT"
label = "criterion not met"

[[record]]
sequence_entry = "AGCTTTTTGA"
label = "criterion not met"

[[record]]
sequence_entry = "TCAGTGTCCG"
label = "criterion not met"

[[record]]
sequence_entry = "GGGTAGGGTG"
label = "criterion met"


###

tested on: ATP; assay: switch fluorescence ratio, 500 uM ATP over buffer (Cy3 cluster intensity, sum of 5 cycles each) (fold (ratio)); higher = stronger signal-on switching upon ATP binding; sequences stand for … in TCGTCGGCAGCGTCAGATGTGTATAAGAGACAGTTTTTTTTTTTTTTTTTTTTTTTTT…TC; details: aptamer strand: ATP DNA aptamer (quencher-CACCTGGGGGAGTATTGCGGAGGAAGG + anchor), 100 nM annealed; ATP concentration: 500 uM;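 note: ATP exposure 15 min at 22 °C before imaging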
measurement type: switch fluorescence ratio

[[record]]
sequence_entry = "TAGGGGAGAC"
measurement_target = "ATP"
measurement_type = "switch fluorescence ratio"
endpoint_value = 1.06

[[record]]
sequence_entry = "GCGGGTCAAA"
measurement_target = "ATP"
measurement_type = "switch fluorescence ratio"
endpoint_value = 0.988

[[record]]
sequence_entry = "CACTCTACGA"
measurement_target = "ATP"
measurement_type = "switch fluorescence ratio"
endpoint_value = 1.41

[[record]]
sequence_entry = "TAGTATAGGA"
measurement_target = "ATP"
measurement_type = "switch fluorescence ratio"
endpoint_value = 0.973

[[record]]
sequence_entry = "TATGAGTAAG"
measurement_target = "ATP"
measurement_type = "switch fluorescence ratio"
endpoint_value = 0.978

[[record]]
sequence_entry = "TAAGAAGTTT"
measurement_target = "ATP"
measurement_type = "switch fluorescence ratio"
endpoint_value = 0.996

[[record]]
sequence_entry = "CTAGGGGACG"
measurement_target = "ATP"
measurement_type = "switch fluorescence ratio"
endpoint_value = 1.03

[[record]]
sequence_entry = "CGTGCCCTGC"
measurement_target = "ATP"
measurement_type = "switch fluorescence ratio"
endpoint_value = 1.06

[[record]]
sequence_entry = "AAGAAACTTC"
measurement_target = "ATP"
measurement_type = "switch fluorescence ratio"
endpoint_value = 1.01

[[record]]
sequence_entry = "TTTGTAGGAT"
measurement_target = "ATP"
measurement_type = "switch fluorescence ratio"
endpoint_value = 1.04

[[record]]
sequence_entry = "ATTTGGGGGG"
measurement_target = "ATP"
measurement_type = "switch fluorescence ratio"
endpoint_value = 1

[[record]]
sequence_entry = "GTGACGGGGG"
measurement_target = "ATP"
measurement_type = "switch fluorescence ratio"
endpoint_value = 1.02

[[record]]
sequence_entry = "GGGGAATTCA"
measurement_target = "ATP"
measurement_type = "switch fluorescence ratio"
endpoint_value = 1.04

[[record]]
sequence_entry = "ACTATTGCCA"
measurement_target = "ATP"
measurement_type = "switch fluorescence ratio"
endpoint_value = 1.04

[[record]]
sequence_entry = "ATTATTACGG"
measurement_target = "ATP"
measurement_type = "switch fluorescence ratio"
endpoint_value = 1

[[record]]
sequence_entry = "CGCGATATTG"
measurement_target = "ATP"
measurement_type = "switch fluorescence ratio"
endpoint_value = 1.58

[[record]]
sequence_entry = "ATTTAATGGG"
measurement_target = "ATP"
measurement_type = "switch fluorescence ratio"
endpoint_value = 0.99

[[record]]
sequence_entry = "TATTTAAGGT"
measurement_target = "ATP"
measurement_type = "switch fluorescence ratio"
endpoint_value = 1

[[record]]
sequence_entry = "AAGGTTCGAA"
measurement_target = "ATP"
measurement_type = "switch fluorescence ratio"
endpoint_value = 1.02

[[record]]
sequence_entry = "GAGGTTTCGT"
measurement_target = "ATP"
measurement_type = "switch fluorescence ratio"
endpoint_value = 0.988

[[record]]
sequence_entry = "TATAAGTACA"
measurement_target = "ATP"
measurement_type = "switch fluorescence ratio"
endpoint_value = 1.38

[[record]]
sequence_entry = "TTAAAGATTG"
measurement_target = "ATP"
measurement_type = "switch fluorescence ratio"
endpoint_value = 0.987

[[record]]
sequence_entry = "ATGATAGTAC"
measurement_target = "ATP"
measurement_type = "switch fluorescence ratio"
endpoint_value = 1.04

[[record]]
sequence_entry = "TTCCAAACGG"
measurement_target = "ATP"
measurement_type = "switch fluorescence ratio"
endpoint_value = 0.989

[[record]]
sequence_entry = "TTTATTTCTA"
measurement_target = "ATP"
measurement_type = "switch fluorescence ratio"
endpoint_value = 0.981

[[record]]
sequence_entry = "CTGGGATGTG"
measurement_target = "ATP"
measurement_type = "switch fluorescence ratio"
endpoint_value = 0.98

[[record]]
sequence_entry = "CCATGGCCAC"
measurement_target = "ATP"
measurement_type = "switch fluorescence ratio"
endpoint_value = 1.03

[[record]]
sequence_entry = "AAAGAGTATA"
measurement_target = "ATP"
measurement_type = "switch fluorescence ratio"
endpoint_value = 0.997

[[record]]
sequence_entry = "ATGAGTGACC"
measurement_target = "ATP"
measurement_type = "switch fluorescence ratio"
endpoint_value = 1.02

[[record]]
sequence_entry = "TTTTATTGCT"
measurement_target = "ATP"
measurement_type = "switch fluorescence ratio"
endpoint_value = 0.991

[[record]]
sequence_entry = "TCTGGGTGCC"
measurement_target = "ATP"
measurement_type = "switch fluorescence ratio"
endpoint_value = 1.02

[[record]]
sequence_entry = "TCAAGATTGG"
measurement_target = "ATP"
measurement_type = "switch fluorescence ratio"
endpoint_value = 0.986

[[record]]
sequence_entry = "TATAGGCGGT"
measurement_target = "ATP"
measurement_type = "switch fluorescence ratio"
endpoint_value = 1.12

[[record]]
sequence_entry = "GTGAGGGGTG"
measurement_target = "ATP"
measurement_type = "switch fluorescence ratio"
endpoint_value = 0.996

[[record]]
sequence_entry = "GGGCAAACAG"
measurement_target = "ATP"
measurement_type = "switch fluorescence ratio"
endpoint_value = 0.959

[[record]]
sequence_entry = "TTTAGATTTG"
measurement_target = "ATP"
measurement_type = "switch fluorescence ratio"
endpoint_value = 1.02

[[record]]
sequence_entry = "ATTAAAGGGT"
measurement_target = "ATP"
measurement_type = "switch fluorescence ratio"
endpoint_value = 1

[[record]]
sequence_entry = "GGGAAGGAGT"
measurement_target = "ATP"
measurement_type = "switch fluorescence ratio"
endpoint_value = 0.992

[[record]]
sequence_entry = "GAGCTTTTTT"
measurement_target = "ATP"
measurement_type = "switch fluorescence ratio"
endpoint_value = 0.999

[[record]]
sequence_entry = "CAGCTTTTCA"
measurement_target = "ATP"
measurement_type = "switch fluorescence ratio"
endpoint_value = 1.02

[[record]]
sequence_entry = "TCATTTATTT"
measurement_target = "ATP"
measurement_type = "switch fluorescence ratio"
endpoint_value = 0.98

[[record]]
sequence_entry = "TTTGAGTCAT"
measurement_target = "ATP"
measurement_type = "switch fluorescence ratio"
endpoint_value = 0.971

[[record]]
sequence_entry = "ACATACAATT"
measurement_target = "ATP"
measurement_type = "switch fluorescence ratio"
endpoint_value = 1.23

